- Study system: DNA repair protein RAD52 homolog (Homo sapiens)
- Assay details: blockers of RAD52 strand annealing activity – biochemical, FRET, single point, set 2, primary screen (AID 651710)
- Experimental context: recombinant RAD52 DNA annealing, FRET fluorescence; at 18.7 µM
Out of some 360,000 compounds screened, about 1,600 (0.44%) were called active.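 Rule for the calls: active = every replicate showing at least 50% inhibition; inconclusive = mean inhibition at least 50% but not in every replicate; inactive = the rest.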 Only a selection was taken, and actives are over-represented in it overall.
API: response.call in active, inactive

Which outcome was assigned to O=C(O)[C@H]1[C@H](CO)[C@H]2Cn3c(cccc3=O)[C@@H]1N2C(=O)c1ccccc1 in this test?
inactive

###

- Study system: DNA repair protein RAD52 homolog (Homo sapiens)
- Assay details: blockers of RAD52 strand annealing activity – biochemical, FRET, single point, set 2, primary screen (AID 651710)
- Experimental context: recombinant RAD52 DNA annealing, FRET fluorescence; at 18.7 µM
About 1,600 (0.44%) of roughly 360,000 compounds were called active.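 How the source made its calls: active means every replicate showing at least 50% inhibition; inconclusive means mean inhibition at least 50% but not in every replicate; inactive means the rest.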 Many of the other results were omitted from the sample, so actives are more common in it than they were.
API: response.call in true for active, false for inactive

molecule=O=C(Cc1ccccc1)N1CCCCN2[C@H](C1)[C@H](c1ccc(C#CC3(O)CCCC3)cc1)[C@@H]2CO assigned_label=false
molecule=O=C(Cc1cccnc1)N1CCCCN2[C@@H](CO)[C@H](c3ccc(C#CC4CCCC4)cc3)[C@@H]2C1 assigned_label=false
molecule="C[N+]1(C)CCOC(O)(c2ccc(-c3ccc(C4(O)C[N+](C)(C)CCO4)cc3)cc2)C1 (configuration not stated)" assigned_label=true

Which outcome was assigned to COc1ccc2c(c1O)-c1cccc3c1[C@@H](C2)N(C)CC3 in this test?
true

Now this one: COc1c(O)ccc2c1-c1c3c(cc4c1C(C2)N(C)CC4)OCO3 (configuration not stated)
false

Now this one: OC[C@@H]1[C@H]2c3ccccc3NC[C@H]2N1Cc1cccnc1
false

Now this one: COc1ccc(C#Cc2ccc([C@H]3[C@H](CO)N4CCCCN(C(=O)Cc5ccccc5)C[C@@H]34)cc2)cc1
false

These data points were gathered from PubChem BioAssay AID651710.
